Measured pIC50 (WDR5 (Homo sapiens))
Here pIC50 is given on a logarithmic scale as minus log10 of the concentration in mol/L.

Answered examples (5):
Structure As Smiles | Result Number
CC(C)[C@@H]1CN(c2nccc(-c3c(F)cc(N4CCN(C)[C@@H](C)C4)c(NC(=O)c4c[nH]c(=O)cc4C(F)F)c3F)n2)CCO1 | 7.91
CC(C)OC(=O)N1CCC=C(c2c(F)cc(N3CCN(C)[C@@H](C)C3)c(NC(=O)c3c[nH]c(=O)cc3C(F)(F)F)c2F)C1 | 7.76
CC(C)OC(=O)N1CCC=C(c2c(F)cc(N3C[C@@H](C)N(C)[C@@H](C)C3)c(NC(=O)c3c[nH]c(=O)cc3C(F)F)c2F)C1 | 7.50
C[C@@H]1CN(c2ccc(-c3c(F)cc(N4CCN(C)[C@@H](C)C4)c(NC(=O)c4cn(C)c(=O)cc4C(F)F)c3F)cn2)C[C@H](C)O1 | 7.61
C[C@@H]1CN(c2nccc(-c3c(F)cc(N4CCN(C)[C@@H](C)C4)c(NC(=O)c4cn(C)c(=O)cc4C(F)F)c3F)n2)C[C@H](C)O1 | 7.57

IN: Give its pIC50 value. Item: C[C@@H]1CN(c2cc(F)c(C3=CCN(c4ncc(C#N)s4)CC3)c(F)c2NC(=O)c2c[nH]c(=O)cc2C(F)(F)F)C[C@H](C)N1C
OUT: 7.89

---

Recorded EC50, one value per entry.
- Tested on: MV4-11 cells
- Method Notes: Cell proliferation assay (ATPlite)
- Type: cell-based
- Experimental Context: Homo sapiens, 120 h; MV4-11 cells, five days; read-out: GI MV411 EC50
Only the number, expressed in nM, is required.

Answered examples (5):
Structure As Smiles | Experimental Target | EC50 (nM)
COc1cc(N2CC=C(c3c(F)cc(N4C[C@@H](C)N(C)[C@@H](C)C4)c(NC(=O)c4c[nH]c(=O)cc4C(F)(F)F)c3F)CC2)ncn1 | MV4-11 cells | 30.9
C[C@H]1CN(c2cc(F)c(C3=CCN(C(=O)c4csc(CN(C)C)n4)CC3)c(F)c2NC(=O)c2c[nH]c(=O)cc2C(F)F)CCN1C | MV4-11 cells | 913
C[C@@H]1CN(c2cc(F)c(-c3ccc(OC4CCOCC4)nc3)c(F)c2NC(=O)c2c[nH]c(=O)cc2C(F)(F)F)C[C@H](C)N1C | MV4-11 cells | 33.8
Cc1sc(-c2c(F)cc(N3CCN(C)[C@@H](C)C3)c(NC(=O)c3ccc(F)cc3C(F)F)c2F)nc1C(=O)N1CCCC1 | MV4-11 cells | 70.1
C[C@@H]1CN(c2cc(F)c(-c3ccc(C(=O)NC(C)(C)CC(C)(C)C)c(F)c3F)c(F)c2NC(=O)c2c[nH]c(=O)cc2C(F)(F)F)C[C@H](C)N1C | MV4-11 cells | 221

IN: Give its EC50 value. Item: C[C@@H]1CN(c2ccc(-c3c(F)cc(N4C[C@@H](C)N(C)[C@@H](C)C4)c(NC(=O)c4c[nH]c(=O)cc4C(F)F)c3F)cn2)C[C@H](C)O1
OUT: 40.8

IN: Give its EC50 value. Item: C[C@@H]1CN(c2cc(F)c(-c3cnc(N4C[C@H](C)O[C@@H](C)C4)nc3)c(F)c2NC(=O)c2c[nH]c(=O)cc2C(F)(F)F)C[C@H](C)N1C
OUT: 9.55

IN: Give its EC50 value. Item: COc1cnc(N2CC=C(c3c(F)cc(N4CCN(C)[C@@H](C)C4)c(NC(=O)c4c[nH]c(=O)cc4C(F)F)c3F)C2)nc1
OUT: 83.2

IN: Give its EC50 value. Item: C[C@@H]1CN(c2cc(F)c(C3=CCCN(C(=O)c4csc(CN(C)C)n4)C3)c(F)c2NC(=O)c2c[nH]c(=O)cc2C(F)(F)F)C[C@H](C)N1C
OUT: 487

IN: Give its EC50 value. Item: C[C@H]1CN(c2cc(F)c(C3=CCN(c4ccnc(C#N)n4)CC3)c(F)c2NC(=O)c2c[nH]c(=O)cc2C(F)F)CCN1C
OUT: 29.9

IN: Give its EC50 value. Item: C[C@@H]1CN(c2cc(F)c(-c3cnc(N(C)C)c(F)c3)c(F)c2NC(=O)c2c[nH]c(=O)cc2C(F)(F)F)C[C@H](C)N1C
OUT: 61.8

IN: Give its EC50 value. Item: C[C@H]1CN(c2cc(F)c(C3=CCN(C(=O)OC4CC(F)(F)C4)C3)c(F)c2NC(=O)c2c[nH]c(=O)cc2C(F)(F)F)CCN1C
OUT: 76.7
